Taken from ChEMBL document CHEMBL1150707.

# assay method text: Displacement of [3H]colchicine from tubulin after 10 mins relative to control
# Design: concentration or dose not given beside the values
observation type: Activity (%)

compound=COc1ccc(CCc2cc(OC)c(OC)c(OC)c2)c(O)c1O observation_type=Activity value_measured=13
compound="COc1cc2c(c(OC)c1OC)-c1cc3c(cc1[C@@H](OC(C)=O)C1COC(=O)[C@H]1C2)OCO3 (stereo not given in full)" observation_type=Activity value_measured=49
compound="COc1ccc(/C=C\\c2cc(OC)c(OC)c(OC)c2)c(O)c1O [COMBRETASTATIN A-1]" observation_type=Activity value_measured=2.2
compound=COc1cc([C@@H]2c3cc4c(cc3[C@H](O)[C@H]3COC(=O)[C@H]23)OCO4)cc(OC)c1OC observation_type=Activity value_measured=13
compound=COc1ccc(C[C@@H](O)c2cc(OC)c(OC)c(OC)c2)cc1O observation_type=Activity value_measured=34
